Consider the following compounds and their measured Size of the lesion (mm) 250 µM readings.
Tested on: tobacco leaves
Assay: Effect of peptide infiltration on tobacco leaves (lesion size)
Type: in vivo
Details: Table 2; 250 µM infiltrated into tobacco leaves; ± confidence interval
Where a SMILES comes first, the peptide text is derived from it. [ ]: non-standard residue; d: D form. The star is where a group is joined. Lauroyl = CCCCCCCCCCCC(=O)*
Give just the numeric value; mm need not be written.

Compound: CCCC(=O)NCCCC[C@H](NC(=O)[C@@H](Cc1ccccc1)NC(=O)[C@H](CC(C)C)NC(=O)[C@H](CCCCN)NC(=O)[C@H](CCCCN)NC(C)=O)C(=O)N[C@@H](CCCCN)C(=O)N[C@H](C(=O)N[C@@H](CC(C)C)C(=O)N[C@@H](CCCCN)C(=O)N[C@@H](Cc1ccc(O)cc1)C(=O)N[C@@H](CC(C)C)C(N)=O)[C@@H](C)CC
Size of the lesion (mm) 250 µM: 6

Compound: CCCCCCCCCCCC(=O)NCCCC[C@H](NC(=O)[C@H](Cc1ccc(O)cc1)NC(=O)[C@H](CCCCN)NC(=O)[C@H](CC(C)C)NC(=O)[C@@H](NC(=O)[C@H](CCCCN)NC(=O)[C@H](CCCCN)NC(=O)[C@@H](Cc1ccccc1)NC(=O)[C@H](CC(C)C)NC(=O)[C@H](CCCCN)NC(=O)[C@H](CCCCN)NC(C)=O)[C@@H](C)CC)C(N)=O [BP476, Ac-KKLfKKILKYK(COC11H23)-NH2] (Ac-KKL[dF]KKILKYK(Lauroyl)-NH2)
Size of the lesion (mm) 250 µM: 5

**Query** Query (compound): `CCCC(=O)NCCCC[C@H](NC(=O)[C@H](CCCCN)NC(C)=O)C(=O)N[C@@H](CC(C)C)C(=O)N[C@H](Cc1ccccc1)C(=O)N[C@@H](CCCCN)C(=O)N[C@@H](CCCCN)C(=O)N[C@H](C(=O)N[C@@H](CC(C)C)C(=O)N[C@@H](CCCCN)C(=O)N[C@@H](Cc1ccc(O)cc1)C(=O)N[C@@H](CC(C)C)C(N)=O)[C@@H](C)CC` ; field requested: Size of the lesion (mm) 250 µM
**Result** 17

---

Recorded Size of the lesion (mm) 50 µM by entry
Test system: tobacco leaves
Assay: Effect of peptide infiltration on tobacco leaves (lesion size)
Assay type: in vivo
Details: D-amino acid lipopeptides; 50 µM, 100 µL infiltrated into mesophyll of tobacco leaves, lesion diameter, 48 h, at least three leaves; ± confidence interval
Where a SMILES comes first, the peptide text is derived from it. [ ]: non-standard residue; d: D form. The star is where a group is joined. Butyryl = CCCC(=O)*
The reply should be a number in mm, with the unit left off.

Answered examples (2):
Compound: CCCC(=O)NCCCC[C@H](NC(=O)[C@H](CCCCN)NC(=O)[C@H](CC(C)C)NC(=O)[C@@H](NC(=O)[C@H](CCCCN)NC(=O)[C@H](CCCCN)NC(=O)[C@@H](Cc1ccccc1)NC(=O)[C@H](CC(C)C)NC(=O)[C@H](CCCCN)NC(=O)[C@H](CCCCN)NC(C)=O)[C@@H](C)CC)C(=O)N[C@@H](CC(C)C)C(N)=O [BP475, Ac-KKLfKKILKK(COC3H7)L-NH2] (Ac-KKL[dF]KKILKK(Butyryl)L-NH2)
Assayed System: tobacco leaves
Size of the lesion (mm) 50 µM: 5
--
Compound: CCCC(=O)NCCCC[C@H](NC(=O)[C@H](CCCCN)NC(C)=O)C(=O)N[C@@H](CC(C)C)C(=O)N[C@H](Cc1ccccc1)C(=O)N[C@@H](CCCCN)C(=O)N[C@@H](CCCCN)C(=O)N[C@H](C(=O)N[C@@H](CC(C)C)C(=O)N[C@@H](CCCCN)C(=O)N[C@@H](Cc1ccc(O)cc1)C(=O)N[C@@H](CC(C)C)C(N)=O)[C@@H](C)CC [BP486, Ac-KK(COC3H7)LfKKILKYL-NH2]
Assayed System: tobacco leaves
Size of the lesion (mm) 50 µM: 4

**Query** // returns reported Size of the lesion (mm) 50 µM for input CCCCCCCCCCCC(=O)NCCCC[C@@H](NC(=O)[C@H](CC(C)C)NC(=O)[C@H](CCCCN)NC(=O)[C@H](CCCCN)NC(C)=O)C(=O)N[C@@H](CCCCN)C(=O)N[C@@H](CCCCN)C(=O)N[C@H](C(=O)N[C@@H](CC(C)C)C(=O)N[C@@H](CCCCN)C(=O)N[C@@H](Cc1ccc(O)cc1)C(=O)N[C@@H](CC(C)C)C(N)=O)[C@@H](C)CC [BP488, Ac-KKLk(COC11H23)KKILKYL-NH2]
**Result** 4

---

Test system: tobacco leaves
Assay: Effect of peptide infiltration on tobacco leaves (lesion size)
Assay type: in vivo
Details: Table 2; 250 µM infiltrated into tobacco leaves; ± confidence interval
Where a SMILES comes first, the peptide text is derived from it. [ ]: non-standard residue; d: D form. The star is where a group is joined. Butyryl = CCCC(=O)*
Experimental Endpoint: Size of the lesion (mm) 250 µM
Kindly format the answer as number then unit.

**Query** Recorded Size of the lesion (mm) 250 µM of CCCC(=O)NCCCC[C@H](NC(=O)[C@@H](NC(=O)[C@H](CCCCN)NC(=O)[C@H](CCCCN)NC(=O)[C@@H](Cc1ccccc1)NC(=O)[C@H](CC(C)C)NC(=O)[C@H](CCCCN)NC(=O)[C@H](CCCCN)NC(C)=O)[C@@H](C)CC)C(=O)N[C@@H](CCCCN)C(=O)N[C@@H](Cc1ccc(O)cc1)C(=O)N[C@@H](CC(C)C)C(N)=O [BP474, Ac-KKLfKKIK(COC3H7)KYL-NH2] (Ac-KKL[dF]KKIK(Butyryl)KYL-NH2) , please.
**Result** 4 ± 2 mm

---

Size of the lesion (mm) 150 µM: recorded values
Test system: tobacco leaves
Assay: Effect of peptide infiltration on tobacco leaves (lesion size)
Assay type: in vivo
Details: D-amino acid lipopeptides; 150 µM, 100 µL infiltrated into tobacco leaves, lesion diameter, 48 h, at least three leaves; ± confidence interval
Procedure: The lipopeptides were evaluated for their effect upon infiltration on tobacco leaves as described previously. Peptide solutions of 50, 150 and 250 μM were infiltrated (100 μL) into the mesophylls of fully expanded tobacco leaves. […] The appearance of symptoms on the leaves was followed for 48 h after infiltration and measured as a lesion diameter.
Where a SMILES comes first, the peptide text is derived from it. [ ]: non-standard residue; d: D form. The star is where a group is joined. Lauroyl = CCCCCCCCCCCC(=O)*; Butyryl = CCCC(=O)*
Express it in mm; write the number only.

Examples with their reported Size of the lesion (mm) 150 µM follow.
Molecule: CCCC(=O)N[C@@H](CCCCN)C(=O)N[C@@H](CCCCN)C(=O)N[C@@H](CC(C)C)C(=O)N[C@H](Cc1ccccc1)C(=O)N[C@@H](CCCCN)C(=O)N[C@@H](CCCCN)C(=O)N[C@H](C(=O)N[C@@H](CC(C)C)C(=O)N[C@@H](CCCCN)C(=O)N[C@@H](Cc1ccc(O)cc1)C(=O)N[C@@H](CC(C)C)C(N)=O)[C@@H](C)CC [BP485, C3H7CO-KKLfKKILKYL-NH2]
Unit Descriptor: mm
Endpoint Value: 7
--
Molecule: CCCCCC(=O)NCCCC[C@@H](NC(=O)[C@H](CC(C)C)NC(=O)[C@H](CCCCN)NC(=O)[C@H](CCCCN)NC(C)=O)C(=O)N[C@@H](CCCCN)C(=O)N[C@@H](CCCCN)C(=O)N[C@H](C(=O)N[C@@H](CC(C)C)C(=O)N[C@@H](CCCCN)C(=O)N[C@@H](Cc1ccc(O)cc1)C(=O)N[C@@H](CC(C)C)C(N)=O)[C@@H](C)CC [BP484, Ac-KKLk(COC5H11)KKILKYL-NH2]
Unit Descriptor: mm
Endpoint Value: 2

**Query** Returns the measured Size of the lesion (mm) 150 µM for the input molecule. Input: CCCC(=O)NCCCC[C@H](NC(=O)[C@H](CCCCN)NC(C)=O)C(=O)N[C@@H](CC(C)C)C(=O)N[C@H](Cc1ccccc1)C(=O)N[C@@H](CCCCN)C(=O)N[C@@H](CCCCN)C(=O)N[C@H](C(=O)N[C@@H](CC(C)C)C(=O)N[C@@H](CCCCN)C(=O)N[C@@H](Cc1ccc(O)cc1)C(=O)N[C@@H](CC(C)C)C(N)=O)[C@@H](C)CC [BP486, Ac-KK(COC3H7)LfKKILKYL-NH2]
**Result** 8

**Query** Also check CCCC(=O)NCCCC[C@H](NC(=O)[C@H](Cc1ccc(O)cc1)NC(=O)[C@H](CCCCN)NC(=O)[C@H](CC(C)C)NC(=O)[C@@H](NC(=O)[C@H](CCCCN)NC(=O)[C@H](CCCCN)NC(=O)[C@@H](Cc1ccccc1)NC(=O)[C@H](CC(C)C)NC(=O)[C@H](CCCCN)NC(=O)[C@H](CCCCN)NC(C)=O)[C@@H](C)CC)C(N)=O [BP496, Ac-KKLfKKILKYK(COC3H7)-NH2] (Ac-KKL[dF]KKILKYK(Butyryl)-NH2)
**Result** 4

**Query** Do the same for CCCCCCCCCCCC(=O)NCCCC[C@H](NC(=O)[C@H](Cc1ccc(O)cc1)NC(=O)[C@H](CCCCN)NC(=O)[C@H](CC(C)C)NC(=O)[C@@H](NC(=O)[C@H](CCCCN)NC(=O)[C@H](CCCCN)NC(=O)[C@@H](Cc1ccccc1)NC(=O)[C@H](CC(C)C)NC(=O)[C@H](CCCCN)NC(=O)[C@H](CCCCN)NC(C)=O)[C@@H](C)CC)C(N)=O [BP476, Ac-KKLfKKILKYK(COC11H23)-NH2] (Ac-KKL[dF]KKILKYK(Lauroyl)-NH2) please
**Result** 3
